# experimental.system: TRIM33α WT (Homo sapiens, UniProt Q9UPN9)
# Construct: The TRIM33β cassette (residues 888–1127) was expressed; made in house; host or cells: E. coli BL21 (DE3) Gold
# Sequence (Q9UPN9 888-1127): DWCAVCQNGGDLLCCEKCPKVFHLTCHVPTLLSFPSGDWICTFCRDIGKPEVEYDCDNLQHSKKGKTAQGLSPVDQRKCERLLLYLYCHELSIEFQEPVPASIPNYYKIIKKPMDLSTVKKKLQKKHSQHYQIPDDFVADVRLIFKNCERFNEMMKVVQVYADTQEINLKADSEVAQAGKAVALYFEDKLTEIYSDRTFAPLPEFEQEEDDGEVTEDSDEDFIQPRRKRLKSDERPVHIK
# protocol.notes: Qualitative WaterLOGSY binding
# Design: key: ✓: √ is assigned to compounds that showed binding; ? is assigned when the result was ambiguous; × is assigned when no-binding was observed
# protocol.conditions: 500 µM compound, 20 µM protein
quantity: WaterLOGSY binding TRIM33α WT

> print(dat)
                                   molecule                       experimental.system                       quantity  val
1  O=C(CN1CCOC(c2cncc(-c3cccc(F)c3)n2)C1)NCc1ccccn1 (stereo not shown)  TRIM33α WT (Homo sapiens, UniProt Q9UPN9)  WaterLOGSY binding TRIM33α WT    ✓
2             O=C(Nc1ccccc1)Nc1ccc2cccnc2c1  TRIM33α WT (Homo sapiens, UniProt Q9UPN9)  WaterLOGSY binding TRIM33α WT    ✓
3          Cc1cc2c(NC(=O)Nc3ccccc3)cccc2nn1  TRIM33α WT (Homo sapiens, UniProt Q9UPN9)  WaterLOGSY binding TRIM33α WT    ✓
4  Cn1c(=O)n(C)c2cc(CNCCc3ccc(S(N)(=O)=O)cc3)ccc21  TRIM33α WT (Homo sapiens, UniProt Q9UPN9)  WaterLOGSY binding TRIM33α WT    ✓
